B1: LOXL2 (parent)
chain: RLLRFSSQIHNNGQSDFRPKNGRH

variants of: B1; experiment: protein stability index of a GFP-peptide fusion (GPS, HEK-293T) (PSI 1-6); higher = more stable; details: c terminus: a fixed tail appended;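 also: lentivirally expressed fusions sorted by FACS into six bins by GFP to DsRed ratio, PSI derived from sequencing read proportions per bin multiplied by bin number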
I'd be grateful if you could share measured protein stability index for these entries.
One number for each entry.

{"columns": ["mutation_name", "readout_kind", "endpoint_value"],
 "data": [
  ["L2K", "protein stability index", 3.91]
]}

Hi! Can you tell me protein stability index for each of these variants?
1. P19T
2. L2N
3. N12A
4. N21P
5. R23E
6. F17R

**Result**
1: 2.32; 2: 4.58; 3: 2.89; 4: 2.4; 5: 3.2; 6: 3.06
